- ASSAY_TEXT: Inhibition of Tel-fused ROS (unknown origin) expressed in mouse BA/F3 cells after 48 hrs by luciferase reporter gene assay in absence of recombinant mouse IL3
In this section, each of the compounds is paired with its reported IC50.
The reply should be a number in nM, with the unit left off.

Before answering, review these 3 worked examples.
INSERT INTO results (smiles_record, measured_parameter, value_reported) VALUES
  ('N#Cc1ccc(-c2cnc3ccc(NCc4ccccc4)nn23)cc1', 'IC50', 300),
  ('Fc1cccc([C@H]2CCCN2c2ccc3ncc(-c4ccccn4)n3n2)c1', 'IC50', 600),
  ('OC1CCN(c2cc(-c3cnc4ccc(N5CCC[C@@H]5c5cccc(F)c5)nn34)ccn2)CC1', 'IC50', 210);

The record that follows has no IC50 shown yet.
Exam item: Please look up its IC50: `O=C(O)CN1CCN(c2cc(-c3cnc4ccc(N5CCC[C@@H]5c5cccc(F)c5)nn34)ccn2)CC1`
Marked response: 60

====

- ASSAY_TEXT: Inhibition of Tel-fused BMX (unknown origin) expressed in mouse BA/F3 cells after 48 hrs by luciferase reporter gene assay in absence of recombinant mouse IL3
In this section, each of the compounds is paired with its reported IC50.
The reply should be a number in µM, with the unit left off.

INSERT INTO results (smiles_record, measured_parameter, value_reported) VALUES
  ('OC1CCN(c2cc(-c3cnc4ccc(N5CCC[C@@H]5c5cccc(F)c5)nn34)ccn2)CC1', 'IC50', 4.3);

The record that follows has no IC50 shown yet.
Exam item: Please look up its IC50: `N#Cc1ccc(-c2cnc3ccc(NCc4ccccc4)nn23)cc1`
Marked response: 9.7

====

In this section, each of the compounds is paired with its reported IC50.
- ASSAY_TEXT: Inhibition of Tel-fused TRKB (unknown origin) overexpressed in mouse BA/F3 cells assessed as inhibition of cell proliferation after 48 hrs by luciferase reporter gene assay in absence of recombinant mouse IL3

Before answering, review these 3 worked examples.
INSERT INTO results (smiles_record, measured_parameter, value_reported) VALUES
  ('Fc1cccc([C@H]2CCCN2c2ccc3ncc(-c4ccccn4)n3n2)c1', 'IC50', '1 nM'),
  ('N#Cc1ccc(-c2cnc3ccc(N4CCC[C@H]4c4cccc(F)c4)nn23)cc1', 'IC50', '1970 nM'),
  ('CN(Cc1ccccc1)c1ccc2ncc(-c3ccc(C#N)cc3)n2n1', 'IC50', '130 nM');

Exam item: Please look up its IC50: `O=C(O)CN1CCN(c2cc(-c3cnc4ccc(N5CCC[C@@H]5c5cccc(F)c5)nn34)ccn2)CC1`
Marked response: 1 nM

Exam item: Also need `NS(=O)(=O)c1ccc(-c2cnc3ccc(NCc4cccc(F)c4)nn23)cc1` , thanks.
Marked response: 13 nM

====

- ASSAY_TEXT: Inhibition of Tel-fused FMS (unknown origin) expressed in mouse BA/F3 cells after 48 hrs by luciferase reporter gene assay in absence of recombinant mouse IL3
MEASURED_PARAMETER: IC50 (µM)
The reply should be a number in µM, with the unit left off.

Before answering, review these 2 worked examples.
INSERT INTO measurements (smiles_record, unit_abbreviation, value_reported) VALUES
  ('O=C(O)CN1CCN(c2cc(-c3cnc4ccc(N5CCC[C@@H]5c5cccc(F)c5)nn34)ccn2)CC1', 'µM', 2.5),
  ('OC1CCN(c2cc(-c3cnc4ccc(N5CCC[C@@H]5c5cccc(F)c5)nn34)ccn2)CC1', 'µM', 5.3);

The record that follows has no IC50 shown yet.
Exam item: Please look up its IC50: `N#Cc1ccc(-c2cnc3ccc(NCc4ccccc4)nn23)cc1`
Marked response: 3.4

====

In this section, each of the molecules is paired with its reported IC50.
- ASSAY_TEXT: Inhibition of Tel-fused TRKB (unknown origin) overexpressed in mouse BA/F3 cells assessed as inhibition of cell proliferation after 48 hrs by luciferase reporter gene assay in absence of recombinant mouse IL3
The reply should be a number in nM, with the unit left off.

Before answering, review these 5 worked examples.
INSERT INTO assay_data (molecule, measured_parameter, unit_abbreviation, value_reported) VALUES
  ('N#Cc1ccc(-c2cnc3ccc(NCc4ccccc4)nn23)cc1', 'IC50', 'nM', 270),
  ('N#Cc1ccc(-c2cnc3ccc(N4CCC[C@@H]4c4cccc(F)c4)nn23)cc1', 'IC50', 'nM', 11),
  ('N#Cc1ccc(-c2cnc3ccc(N4CCCC4c4cccc(F)c4)nn23)cc1 (stereo unspecified)', 'IC50', 'nM', 29),
  ('OCc1ccc(-c2cnc3ccc(NCc4cccc(F)c4)nn23)cc1', 'IC50', 'nM', 27),
  ('OC1CCN(c2cc(-c3cnc4ccc(N5CCC[C@@H]5c5cccc(F)c5)nn34)ccn2)CC1', 'IC50', 'nM', 4);

Exam item: Please look up its IC50: `N#Cc1ccc(-c2cnc3ccc(NCc4cccc(F)c4)nn23)cc1`
Marked response: 21

====

- ASSAY_TEXT: Inhibition of Tel-fused TRKA (unknown origin) overexpressed in mouse BA/F3 cells assessed as inhibition of cell proliferation after 48 hrs by luciferase reporter gene assay in absence of recombinant mouse IL3
In this section, each of the molecules is paired with its reported log10(IC50).
Plainly stated, the numbers are log10 of IC50 given in nM.

INSERT INTO measurements (smiles_record, value_reported) VALUES
  ('N#Cc1ccc(-c2cnc3ccc(NCc4ccccc4)nn23)cc1', 2.93),
  ('CN(Cc1ccccc1)c1ccc2ncc(-c3ccc(C#N)cc3)n2n1', 2.72),
  ('N#Cc1cccc(-c2cnc3ccc(NCc4ccccc4)nn23)c1', 2.87),
  ('COc1ccccc1CNc1ccc2ncc(-c3ccc(C#N)cc3)n2n1', 2.23);

The record that follows has no log10(IC50) shown yet.
Exam item: Please look up its log10(IC50): `NS(=O)(=O)c1ccc(-c2cnc3ccc(NCc4cccc(F)c4)nn23)cc1`
Marked response: 1.43

====

- ASSAY_TEXT: Inhibition of Tel-fused MER (unknown origin) expressed in mouse BA/F3 cells after 48 hrs by luciferase reporter gene assay in absence of recombinant mouse IL3
In this section, each of the compounds is paired with its reported IC50.

INSERT INTO results (smiles_record, measured_parameter, value_reported) VALUES
  ('OC1CCN(c2cc(-c3cnc4ccc(N5CCC[C@@H]5c5cccc(F)c5)nn34)ccn2)CC1', 'IC50', '5.1 µM');

The record that follows has no IC50 shown yet.
Exam item: Please look up its IC50: `N#Cc1ccc(-c2cnc3ccc(NCc4ccccc4)nn23)cc1`
Marked response: 5.4 µM

====

- ASSAY_TEXT: Inhibition of BCR-fused ABL (unknown origin) expressed in mouse BA/F3 cells after 48 hrs by luciferase reporter gene assay in absence of recombinant mouse IL3
In this section, each of the compounds is paired with its reported IC50.
The reply should be a number in µM, with the unit left off.

Before answering, review these 2 worked examples.
INSERT INTO measurements (smiles_record, value_reported) VALUES
  ('OC1CCN(c2cc(-c3cnc4ccc(N5CCC[C@@H]5c5cccc(F)c5)nn34)ccn2)CC1', 5.2),
  ('N#Cc1ccc(-c2cnc3ccc(NCc4ccccc4)nn23)cc1', 3.8);

Exam item: Please look up its IC50: `O=C(O)CN1CCN(c2cc(-c3cnc4ccc(N5CCC[C@@H]5c5cccc(F)c5)nn34)ccn2)CC1`
Marked response: 2.4

====

- ASSAY_TEXT: Inhibition of Tel-fused RON (unknown origin) expressed in mouse BA/F3 cells after 48 hrs by luciferase reporter gene assay in absence of recombinant mouse IL3
MEASURED_PARAMETER: IC50 (µM)
The reply should be a number in µM, with the unit left off.

INSERT INTO measurements (smiles_record, measured_parameter, value_reported) VALUES
  ('OC1CCN(c2cc(-c3cnc4ccc(N5CCC[C@@H]5c5cccc(F)c5)nn34)ccn2)CC1', 'IC50', 4.8);

The record that follows has no IC50 shown yet.
Exam item: Please look up its IC50: `N#Cc1ccc(-c2cnc3ccc(NCc4ccccc4)nn23)cc1`
Marked response: 6.1

====

- ASSAY_TEXT: Inhibition of Tel-fused RET (unknown origin) expressed in mouse BA/F3 cells after 48 hrs by luciferase reporter gene assay in absence of recombinant mouse IL3
MEASURED_PARAMETER: IC50

Exam item: Please look up its IC50: `O=C(O)CN1CCN(c2cc(-c3cnc4ccc(N5CCC[C@@H]5c5cccc(F)c5)nn34)ccn2)CC1`
Marked response: 3.7 µM

====

In this section, each of the molecules is paired with its reported IC50.
- ASSAY_TEXT: Inhibition of Tel-fused KDR (unknown origin) expressed in mouse BA/F3 cells after 48 hrs by luciferase reporter gene assay in absence of recombinant mouse IL3
The reply should be a number in µM, with the unit left off.

Before answering, review these 2 worked examples.
INSERT INTO assay_data (smiles_record, measured_parameter, value_reported) VALUES
  ('N#Cc1ccc(-c2cnc3ccc(NCc4ccccc4)nn23)cc1', 'IC50', 4.1),
  ('O=C(O)CN1CCN(c2cc(-c3cnc4ccc(N5CCC[C@@H]5c5cccc(F)c5)nn34)ccn2)CC1', 'IC50', 1);

Exam item: Please look up its IC50: `OC1CCN(c2cc(-c3cnc4ccc(N5CCC[C@@H]5c5cccc(F)c5)nn34)ccn2)CC1`
Marked response: 5
